biological target: hMC4-R (Homo sapiens (Human)); assay: Competitive inhibition binding assay using [I125]-NDP-α-MSH, hMC4-R; settings: membranes of HEK-293 cells expressing recombinant hMC4-R, read-out: MC4-R Ki
Sequence (P32245 whole entry): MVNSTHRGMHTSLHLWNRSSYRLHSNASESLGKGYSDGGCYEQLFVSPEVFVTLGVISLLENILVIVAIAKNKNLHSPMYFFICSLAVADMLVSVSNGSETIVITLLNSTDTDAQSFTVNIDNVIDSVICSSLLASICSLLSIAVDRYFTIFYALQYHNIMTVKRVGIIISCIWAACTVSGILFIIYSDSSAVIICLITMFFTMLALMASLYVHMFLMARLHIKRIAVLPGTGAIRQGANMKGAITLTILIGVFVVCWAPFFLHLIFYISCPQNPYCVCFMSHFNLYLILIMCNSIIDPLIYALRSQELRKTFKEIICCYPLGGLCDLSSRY
pKi: −log10 of the molar value. Positions of bridges follow the written chain, without caps; N, C: chain ends. Non-standard residues stand in square brackets, D forms with d. Residues, ends and D or L forms follow the SMILES beside them. dPhe(3-Cl) = N[C@H](Cc1cccc(Cl)c1)C(=O)O; Orn = NCCC[C@H](N)C(=O)O
The following molecules are shown together with reported pKi values.
recorded.endpoint: pKi

INSERT INTO measurements (molecule, system, reading) VALUES
  ('CC(=O)N[C@@H](CCCNC(=N)N)C(=O)N[C@H]1CCC(=O)NCCC[C@@H](C(N)=O)NC(=O)[C@H](Cc2c[nH]c3ccccc23)NC(=O)[C@H](CCCNC(=N)N)NC(=O)[C@@H](Cc2ccccc2Cl)NC(=O)[C@@H]2C[C@@H](O)CN2C1=O', 'hMC4-R (Homo sapiens (Human))', 9.00),
  ('CC(=O)N[C@H](CCCNC(=N)N)C(=O)N[C@H]1CC(=O)NCCCC[C@@H](C(N)=O)NC(=O)[C@H](Cc2c[nH]c3ccccc23)NC(=O)[C@H](CCCNC(=N)N)NC(=O)[C@@H](Cc2ccccc2Cl)NC(=O)[C@H](CCC(N)=O)NC1=O', 'hMC4-R (Homo sapiens (Human))', 8.00),
  ('CC(=O)N[C@H](CCCNC(=N)N)C(=O)N[C@H]1CCCNC(=O)CC[C@@H](C(N)=O)NC(=O)[C@H](Cc2c[nH]c3ccccc23)NC(=O)[C@H](CCCNC(=N)N)NC(=O)[C@@H](Cc2ccc(C#N)cc2)NC(=O)[C@H](Cc2c[nH]cn2)NC1=O', 'hMC4-R (Homo sapiens (Human))', 9.22),
  ('CC(=O)N[C@@H](CCCNC(=N)N)C(=O)N[C@H]1CCC(=O)NCCC[C@@H](C(N)=O)NC(=O)[C@H](Cc2c[nH]c3ccccc23)NC(=O)[C@H](CCCNC(=N)N)NC(=O)[C@@H](Cc2ccc(C(C)(C)C)cc2)NC(=O)[C@H](CCN)NC1=O', 'hMC4-R (Homo sapiens (Human))', 8.40),
  ('CC(=O)N[C@@H](CCCNC(=N)N)C(=O)N[C@H]1CCC(=O)NCCC[C@@H](C(N)=O)NC(=O)[C@H](Cc2c[nH]c3ccccc23)NC(=O)[C@H](CCCNC(=N)N)NC(=O)[C@@H](Cc2ccc(C#N)cc2)NC(=O)[C@H](CO)NC1=O', 'hMC4-R (Homo sapiens (Human))', 8.00),
  ('CC(=O)N[C@H](CCCNC(=N)N)C(=O)N[C@H]1CCCNC(=O)CC[C@@H](C(N)=O)NC(=O)[C@H](Cc2c[nH]c3ccccc23)NC(=O)[C@H](CCCNC(=N)N)NC(=O)[C@@H](Cc2ccc(F)cc2)NC(=O)[C@H](Cc2c[nH]cn2)NC1=O', 'hMC4-R (Homo sapiens (Human))', 9.19),
  ('CC(=O)N[C@@H](CCCNC(=N)N)C(=O)N[C@H]1CCC(=O)NCCC[C@@H](C(N)=O)NC(=O)[C@H](Cc2c[nH]c3ccccc23)NC(=O)[C@H](CCCNC(=N)N)NC(=O)[C@@H](Cc2ccccc2Cl)NC(=O)[C@H]([C@@H](C)O)NC1=O', 'hMC4-R (Homo sapiens (Human))', 7.96),
  ('CC(=O)N[C@H](CCCNC(=N)N)C(=O)N[C@H]1CC(=O)NCCCC[C@@H](C(N)=O)NC(=O)[C@H](Cc2c[nH]c3ccccc23)NC(=O)[C@H](CCCNC(=N)N)NC(=O)[C@@H](Cc2ccc(F)cc2)NC(=O)[C@H](CCC(N)=O)NC1=O', 'hMC4-R (Homo sapiens (Human))', 8.22),
  ('CC(=O)N[C@@H](CCCNC(=N)N)C(=O)N[C@H]1CCC(=O)NCCC[C@@H](C(N)=O)NC(=O)[C@H](Cc2c[nH]c3ccccc23)NC(=O)[C@H](CCCNC(=N)N)NC(=O)[C@@H](Cc2ccccc2Cl)NC(=O)[C@H](COCc2ccccc2)NC1=O', 'hMC4-R (Homo sapiens (Human))', 9.52),
  ('CC(=O)N[C@@H](CCCNC(=N)N)C(=O)N[C@H]1CCC(=O)NCCC[C@@H](C(N)=O)NC(=O)[C@H](Cc2c[nH]c3ccccc23)NC(=O)[C@H](CCCNC(=N)N)NC(=O)[C@@H](Cc2cccc(Cl)c2)NC(=O)[C@H](CN)NC1=O', 'hMC4-R (Homo sapiens (Human))', 8.40),
  ('CC(=O)N[C@@H](CCCNC(=N)N)C(=O)N[C@H]1CCCNC(=O)CC[C@@H](C(N)=O)NC(=O)[C@H](Cc2c[nH]c3ccccc23)NC(=O)[C@H](CCCNC(=N)N)NC(=O)[C@@H](Cc2ccccc2C)NC(=O)[C@H](CC(N)=O)NC1=O', 'hMC4-R (Homo sapiens (Human))', 8.30),
  ('CC(=O)N[C@@H](CCCNC(=N)N)C(=O)N[C@H]1CCC(=O)NCCC[C@@H](C(N)=O)NC(=O)[C@H](Cc2c[nH]c3ccccc23)NC(=O)[C@H](CCCNC(=N)N)NC(=O)[C@@H](Cc2ccccc2F)NC(=O)[C@@H]2C[C@@H](O)CN2C1=O', 'hMC4-R (Homo sapiens (Human))', 8.52),
  ('CC(=O)N[C@@H](CCCNC(=N)N)C(=O)N[C@H]1CCC(=O)NCCC[C@@H](C(N)=O)NC(=O)[C@H](Cc2c[nH]c3ccccc23)NC(=O)[C@H](CCCNC(=N)N)NC(=O)[C@@H](Cc2cccc(Cl)c2)NC(=O)[C@H](CCCCN)NC1=O [Example 100] (Ac-REK[dPhe(3-Cl)]RW[Orn]-NH2; lactam 2-7)', 'hMC4-R (Homo sapiens (Human))', 8.40),
  ('CC(=O)N[C@@H](CCCNC(=N)N)C(=O)N[C@H]1CCC(=O)NCCC[C@@H](C(N)=O)NC(=O)[C@H](Cc2c[nH]c3ccccc23)NC(=O)[C@H](CCCNC(=N)N)NC(=O)[C@@H](Cc2ccccc2C(F)(F)F)NC(=O)[C@H](CCN)NC1=O', 'hMC4-R (Homo sapiens (Human))', 9.22),
  ('CC(=O)N[C@@H](CCCNC(=N)N)C(=O)N[C@H]1CCC(=O)NCCC[C@@H](C(N)=O)NC(=O)[C@H](Cc2c[nH]c3ccccc23)NC(=O)[C@H](CCCNC(=N)N)NC(=O)[C@@H](Cc2ccc(C(F)(F)F)cc2)NC(=O)[C@H](CCN)NC1=O', 'hMC4-R (Homo sapiens (Human))', 10.22);
